- testDetails: Cytotoxicity against African green monkey Vero cells after 6 to 7 days by MTS assay
- Assay type: cell-based
- experimentalConditions: chlorocebus sabaeus, Vero cells
measurementKind: CC50 (µM)

1) C=C(C)[C@@H]1CC[C@]2(C(=O)O)CC[C@]3(C)[C@H](CC[C@@H]4[C@@]5(C)CC[C@H](OC(=O)/C=C/c6ccc(O)c(O)c6)C(C)(C)[C@@H]5CC[C@]43C)[C@@H]12
6.9

Values from ChEMBL document CHEMBL2034852
